Cited source for all entries: ChEMBL document CHEMBL5325390

experiment: Binding affinity to VIM-2 (unknown origin) expressed in Escherichia coli BL21(DE3) assessed as inhibition constant by measuring rate of substrate hydrolysis by UV-Vis spectrophotometric analysis
pKi: −log10 of the molar value.
I would appreciate it if you labelled entries criterion met when pKi is 5 or higher, otherwise criterion not met.

compound	label_class
O=C(O)c1ccccc1CCn1c(-c2cccc(-c3ccccc3)c2)n[nH]c1=S	criterion met
S=c1[nH]nc(-c2ccccc2)n1CCCCc1ccccc1	criterion met
COc1ccc(O)c(-c2n[nH]c(=S)n2CC2OC(=O)c3ccccc32)c1 (centres undefined)	criterion met
COc1ccc(O)c(-c2n[nH]c(=S)n2CCc2ccc(O)cc2)c1	criterion met
Oc1cccc(CCn2c(-c3cccc(-c4ccccc4)c3)n[nH]c2=S)c1O	criterion met
COc1ccc(O)c(-c2n[nH]c(=S)n2CCc2ccccc2)c1	criterion met
Sc1nnc(-c2ccccc2)n1-c1ccccc1	criterion not met
Oc1ccc(CCn2c(-c3ccccc3)n[nH]c2=S)cc1	criterion met
S=c1[nH]nc(-c2ccccc2)n1CCc1ccc(OCc2ccccc2)cc1	criterion not met
S=c1[nH]nc(-c2ccccc2)n1CCCc1ccccc1	criterion met
O=C(O)c1cccc(Cn2c(-c3ccccc3)n[nH]c2=S)c1	criterion met
O=C(O)c1ccccc1/C=N/n1c(-c2cccc(-c3ccccc3)c2)n[nH]c1=S	criterion met
Oc1ccc(CCn2c(-c3cccc(-c4ccccc4)c3)n[nH]c2=S)cc1O	criterion met
